Values were extracted from paper PMC5540273.

tested on: RIPK1; settings: concentration: 1 μM, replicates: in singlicate; n = 1;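 further: KINOMEscan kinase panel screen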
Below, each of the molecules is paired with its reported %Inh value.
Just the number in %, nothing appended.

Some solved entries appear below for comparison.
- molecule: "O=C(O)C(F)(F)F.O=C(O)C(F)(F)F.O=c1[nH]ccc2nc(N[C@@H]3CCCNC3)nc(Nc3ccc(S(=O)(=O)N4CCOCC4)cc3)c12"
  experimental target: "RIPK1"
  %Inh, %: 0
- molecule: "Nc1ncc(-c2cccnc2)c2scc(-c3ccc4c(c3)CCN4C(=O)Cc3ccccc3)c12"
  experimental target: "RIPK1"
  %Inh, %: 100
- molecule: "COc1cc2c(cc1OCCN1CCNCC1)ncc1c3ccc(C#N)cc3[nH]c21"
  experimental target: "RIPK1"
  %Inh, %: 0
- molecule: "COc1cc(Nc2nccc(-c3c(-c4cccc(NC(=O)c5c(F)cccc5F)c4)nn4ncccc34)n2)cc(OC)c1OC"
  experimental target: "RIPK1"
  %Inh, %: 16

Ask: Output %Inh of COc1ccc(Nc2nccc(NCCNC(=O)c3cc4ccccc4s3)n2)cc1
Result: 0

Ask: Output %Inh of CCn1c(-c2nonc2N)nc2c(C#CC(C)(C)O)ncc(OCCCCN)c21.O=C(O)C(F)(F)F.O=C(O)C(F)(F)F
Result: 0

Ask: Output %Inh of CC(C)(C)c1ccc2nccc(Nc3cccc(O)c3)c2c1
Result: 0

Ask: Output %Inh of CCc1ccc(-c2ccc3c(c2)-c2c(cnn2C)S(=O)(=O)N3C)cc1
Result: 0

Ask: Output %Inh of O=C(NC1CCN(c2ccnc(Nc3ccc(F)cc3)n2)C1)c1cc2ccccc2s1 (stereo not shown)
Result: 0

Ask: Output %Inh of Cc1ccc(F)c(C(=O)Nc2cccc(-c3nn4ccccc4c3-c3ccnc(Nc4cccc(F)c4)n3)c2)c1F
Result: 2

Ask: Output %Inh of O=c1[nH]cc(-c2ccc(N3CCOCC3)cc2)c2sc(-c3cn[nH]c3)cc12
Result: 18

Ask: Output %Inh of Cc1ccc(C)c(NC(=O)NC2CCN(c3ccnc(Nc4ccc(F)cc4)n3)C2)c1 (stereo not shown)
Result: 0

Ask: Output %Inh of COc1ccc(CNC(=O)NC2CCN(c3ccnc(Nc4ccc(F)cc4)n3)CC2)cc1
Result: 0

Ask: Output %Inh of Cn1cc(-c2ccc3c(c2)CCN3C(=O)Cc2cccc(F)c2)c2c(N)ncnc21
Result: 99.7

Ask: Output %Inh of COc1cccc(C(=O)Nc2cccc(Oc3ccc4nc(NC(=O)C5CC5)cn4n3)c2)c1
Result: 20

Ask: Output %Inh of C[C@@H](Oc1cc(-n2cnc3cc(-c4ccnc(NCCS(C)(=O)=O)c4)ccc32)sc1C(N)=O)c1ccccc1Cl
Result: 45

Ask: Output %Inh of Cn1cc(-c2[nH]c3cc(NC(=O)[C@H](N)C4CCCCC4)cc4c3c2C=NNC4=O)cn1
Result: 0

Ask: Output %Inh of Fc1ccc(-c2ncn(C3CCNCC3)c2-c2ccnc(Oc3ccc(-c4ccccc4)cc3)n2)cc1
Result: 0

----------
Below, each of the molecules is paired with its reported %Inh value.
tested on: MEK3; construct: gene MAP2K3; settings: concentration: 1 μM, replicates: in singlicate; n = 1
Just the number in %, nothing appended.

Some solved entries appear below for comparison.
- molecule: "O=C(Nc1n[nH]c2cc(-c3ccoc3)ccc12)C1CC1 [SB-738481]"
  %Inh / %: 23
- molecule: "Cl.c1ccc(-c2ccc3c(Nc4ccc5[nH]ncc5c4)ccnc3c2)nc1 [GW440137]"
  %Inh / %: 0
- molecule: "O=C(Nc1cccc(Oc2ccc3nc(NC(=O)C4CC4)cn3n2)c1)c1ccccc1C(F)(F)F"
  %Inh / %: 17
- molecule: "O=C(Nc1ccccc1F)NC1CCN(c2ccnc(Nc3ccc(F)cc3)n2)CC1 [GSK1379800]"
  %Inh / %: 0
- molecule: "CN(C)Cc1ccc(-c2ccc3c(Nc4ccc(Oc5ccccn5)cc4)ccnc3c2)o1 [GW567148]"
  %Inh / %: 0

Ask: Output %Inh of Clc1ccc(-c2nn3ncccc3c2-c2ccnc(Nc3ccc4c(c3)OCCO4)n2)cc1 [GW829116]
Result: 14

Ask: Output %Inh of Cc1ccc(F)c(C(=O)Nc2cccc(-c3nn4ccccc4c3-c3ccnc(Nc4cccc(F)c4)n3)c2)c1F [GSK361061]
Result: 0

Ask: Output %Inh of Cn1cc(-c2ccc3c(c2)CCN3C(=O)Cc2cccc(F)c2)c2c(N)ncnc21 [GSK2603358]
Result: 0

Ask: Output %Inh of CC(=O)Nc1nc2cnc(Nc3cc(NC(=O)c4cccc(C5(C#N)CC5)c4Cl)ccc3C)nc2s1
Result: 0

Ask: Output %Inh of O=C(Nc1n[nH]c2nc(-c3ccc(O)cc3)ccc12)C1CC1 [SB-710363]
Result: 36

Ask: Output %Inh of Fc1ccc(-c2ncn(C3CCNCC3)c2-c2ccnc(Oc3ccc(-c4ccccc4)cc3)n2)cc1 [SB-245391]
Result: 18

Ask: Output %Inh of O=c1[nH]cc(-c2ccc(N3CCOCC3)cc2)c2sc(-c3cn[nH]c3)cc12 [GSK2276055]
Result: 17

Ask: Output %Inh of COc1cc(Nc2nccc(-c3c(-c4cccc(NC(=O)c5c(F)cccc5F)c4)nn4ncccc34)n2)cc(OC)c1OC [GSK327238]
Result: 12

Ask: Output %Inh of O=C(Nc1cccc(-c2nn3ccccc3c2-c2ccnc(Nc3cccc(F)c3)n2)c1)c1c(F)ccc(F)c1Cl [GSK357952]
Result: 0

----------
tested on: NLK; details: concentration: 1 μM, replicates: in singlicate; n = 1
quantity measured: %Inh
# do not omit the unit; it follows the number

Some solved entries appear below for comparison.
- compound: "Cl.Cl.NCC(NCc1ccc(-c2ccnc3[nH]ccc23)s1)c1ccccc1 (stereo not shown)"
  experimental target: "NLK"
  %Inh: "8%"
- compound: "Nc1ncnc2c1nc(-c1ccccc1)n2-c1ccccc1"
  experimental target: "NLK"
  %Inh: "0%"
- compound: "c1ccc(-c2cnc3nccnn23)cc1"
  experimental target: "NLK"
  %Inh: "0%"

Ask: Output %Inh of Cn1cc(-c2[nH]c3cc(NC(=O)[C@H](N)C4CCCCC4)cc4c3c2C=NNC4=O)cn1
Result: 0%

Ask: Output %Inh of COC(=O)Nc1nc2ccc(Oc3ccc(NC(=O)Nc4cc(C(F)(F)F)ccc4F)cc3)cc2n1C.Cl
Result: 8%

Ask: Output %Inh of Cl.c1ccc(-c2ccc3c(Nc4ccc5[nH]ncc5c4)ccnc3c2)nc1
Result: 28%

Ask: Output %Inh of Cc1ccc(S(=O)(=O)Nc2ccc(Nc3nccc(Nc4cccc5[nH]ncc45)n3)cc2)cc1
Result: 56%

Ask: Output %Inh of O=c1[nH]cc(-c2ccc(N3CCOCC3)cc2)c2sc(-c3cn[nH]c3)cc12
Result: 0%

Ask: Output %Inh of Cl.Cl.NCC(NC(=O)c1cc(-c2ccccc2)c(-c2ccnc3[nH]ccc23)s1)c1ccccc1 (stereo not shown)
Result: 55%

Ask: Output %Inh of Nc1ncc(-c2ccc3nccc(-c4ccncc4)c3c2)cc1S(=O)(=O)N1CCOCC1
Result: 0%

Ask: Output %Inh of CCCCc1nn2ncccc2c1-c1ccnc(Nc2ccc(N3CCN(C)CC3)cc2)n1
Result: 54%

Ask: Output %Inh of Cc1ccc(F)c(C(=O)Nc2cccc(-c3nn4ccccc4c3-c3ccnc(Nc4cccc(F)c4)n3)c2)c1F
Result: 77%

Ask: Output %Inh of FC(F)(F)c1ccc(/C=C/c2cncnc2Nc2ccc3[nH]c(Cc4ccccc4)nc3c2)cc1
Result: 9%

Ask: Output %Inh of Cc1ccc(C(=O)Nc2ccc(Nc3ccnc4cc(-c5nccs5)ccc34)cc2O)cc1.Cl
Result: 0%

Ask: Output %Inh of Cl.Cl.NCC(C(=O)Nc1cc(Br)c(-c2ccnc3[nH]ccc23)s1)c1ccccc1 (stereo not shown)
Result: 0%

Ask: Output %Inh of O=C(Nc1cccc(Oc2ccc3nc(NC(=O)C4CC4)cn3n2)c1)c1ccccc1C(F)(F)F
Result: 37%

Ask: Output %Inh of NCCCC(NC(=O)c1cc(Br)c(-c2ccnc3[nH]ccc23)s1)c1ccccc1.O=C(O)C(F)(F)F.O=C(O)C(F)(F)F (stereo not shown)
Result: 0%

Ask: Output %Inh of O=C(Nc1cccc(-c2nn3ccccc3c2-c2ccnc(Nc3cccc(F)c3)n2)c1)c1c(F)ccc(F)c1Cl
Result: 46%

Ask: Output %Inh of C[C@@H](Oc1cc(-n2cnc3cc(-c4ccnc(NCCS(C)(=O)=O)c4)ccc32)sc1C(N)=O)c1ccccc1Cl
Result: 14%

----------
test system: PRKR; construct: gene EIF2AK2; details: concentration: 1 μM, replicates: in singlicate; n = 1
Below, each of the compounds is paired with its reported %Inh value.
# do not omit the unit; it follows the number

Some solved entries appear below for comparison.
- structure smiles string: "COc1cccc(-c2ccc3c(NC(=O)C4CC4)n[nH]c3n2)c1"
  experimental target: "PRKR"
  quantity measured: "%Inh"
  result: "0%"
- structure smiles string: "CCn1c(-c2nonc2N)nc2c(C#CC(C)(C)O)ncc(OCCCCN)c21.O=C(O)C(F)(F)F.O=C(O)C(F)(F)F"
  experimental target: "PRKR"
  quantity measured: "%Inh"
  result: "0%"
- structure smiles string: "CC(=O)N1CCN(c2ccc(Nc3nccc(-c4sc(C(C)C)nc4-c4cccc(NS(=O)(=O)c5cccc(Cl)c5)c4)n3)cn2)CC1"
  experimental target: "PRKR"
  quantity measured: "%Inh"
  result: "0%"

Ask: State the measured %Inh (PRKR) of COc1ccc(Nc2nccc(NCCNC(=O)c3cc4ccccc4s3)n2)cc1
Result: 0%

Ask: State the measured %Inh (PRKR) of CC(C)c1nc(-c2cccc(NS(=O)(=O)c3c(F)cccc3F)c2F)c(-c2ccnc(Nc3ccc(N4CCOCC4)nc3)n2)s1
Result: 29%

Ask: State the measured %Inh (PRKR) of COc1cccc(C2=C(Nc3ccc(Cl)c(C(=O)O)c3)C(=O)NC2=O)c1
Result: 9%

Ask: State the measured %Inh (PRKR) of COc1cc(Nc2nccc(-c3c(-c4cccc(NC(=O)c5c(F)cccc5F)c4)nn4ncccc34)n2)cc(OC)c1OC
Result: 22%
